These data points were gathered from paper PMC5681660.

Target: human NTCP (Homo sapiens, UniProt Q14973)
Sequence (Q14973 1-349): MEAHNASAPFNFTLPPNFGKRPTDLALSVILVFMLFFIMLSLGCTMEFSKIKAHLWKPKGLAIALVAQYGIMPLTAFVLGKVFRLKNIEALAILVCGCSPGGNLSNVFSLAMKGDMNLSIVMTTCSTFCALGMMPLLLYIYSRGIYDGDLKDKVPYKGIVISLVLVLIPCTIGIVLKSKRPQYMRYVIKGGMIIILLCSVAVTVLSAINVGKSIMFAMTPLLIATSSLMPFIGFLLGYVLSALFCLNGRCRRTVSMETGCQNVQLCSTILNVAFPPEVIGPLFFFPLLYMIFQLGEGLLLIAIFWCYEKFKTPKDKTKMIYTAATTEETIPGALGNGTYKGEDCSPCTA
Assay: Screening taurocholate uptake assay (96-well, [14C]taurocholate, 10 µM drug)
Conditions: combined ranking from functional and binding assay B-scores
Where a name gives a salt, the structure may show the parent alone.
Ranking score by entry:

compound	Ranking score
O=C(CCNNC(=O)c1ccncc1)NCc1ccccc1 [Nialamide]	907.486
Cc1cc(C(C)(C)C)c(O)c(C)c1CC1=NCCN1 [Oxymetazoline hydrochloride]	1060.78
COc1cc(C(=O)N2CCOCC2)cc(OC)c1OC	925.93
NC[C@@H]1O[C@H](O[C@H]2[C@@H](O)[C@H](O[C@@H]3[C@@H](O)[C@H](N)C[C@H](N)[C@H]3O[C@H]3O[C@H](CO)[C@@H](O)[C@H](O)[C@H]3N)O[C@@H]2CO)[C@H](N)[C@@H](O)[C@@H]1O [Paromomycin sulfate]	976.576
CC(=O)/N=c1/sc(S(N)(=O)=O)nn1C [Methazolamide]	849.129
C#C[C@]1(O)CC[C@H]2[C@@H]3[C@H](C)CC4=C(CCC(=O)C4)[C@H]3CC[C@@]21C	930.923
COc1cc(NC(C)CCCN)c2ncccc2c1 (stereo not shown) [Primaquine diphosphate]	1046.51
COC(=O)CCc1ccc(OCC(O)CNC(C)C)cc1 (stereo not shown) [Esmolol hydrochloride]	1025.92
O=C([O-])[C@H]1/C(=C/CO)O[C@@H]2CC(=O)N21.[K+] [Clavulanate potassium salt]	886.007
Nc1nc(/C(=C/CC(=O)O)C(=O)N[C@@H]2C(=O)N3C(C(=O)O)=CCS[C@H]23)cs1	1026.13
CC(=O)CC(c1ccc([N+](=O)[O-])cc1)c1c(O)c2ccccc2oc1=O (stereo not shown)	950.096
Nc1ccc(S(=O)(=O)Nc2ncccn2)cc1	1074.81
Cc1onc(-c2c(Cl)cccc2Cl)c1C(=O)N[C@@H]1C(=O)N2[C@@H]1SC(C)(C)[C@@H]2C(=O)[O-].O.[Na+] [Dicloxacillin sodium salt hydrate]	908.983
CN1[C@@H]2CC[C@H]1C[C@@H](OC1c3ccccc3CCc3ccccc31)C2.O=C(O)CC(O)(CC(=O)O)C(=O)O [Deptropine citrate]	1000.12
COc1cc(C(=O)NC2CCCNC2)cc(OC)c1OC (stereo not shown) [Troxipide]	1019.78
CCOC(=O)C1=C(C)NC(C)=C(C(=O)OCC)C1c1ccccc1/C=C/C(=O)OC(C)(C)C	957.497
